experimentalDetails: chemical genetic growth profiling, strain panel (AID 1159580);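 note: tested at 20 µM; growth read once vehicle control cultures reached saturation at 30 °C; 1 = growth at the plate median or of vehicle wells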
testSettings: S. cerevisiae deletion strains, growth OD, locus YOR231W, strain MKK1
Hit rate of the full screen: of about 5,500 compounds, about 2,000 (36%) were called active. About 18% were inconclusive and are not listed. Cut-off read from the data, not from the text of the source: active = normalized growth mostly below about 0.91 (no sharp cut-off); inconclusive = no clear call, values can overlap the other calls; inactive = mostly above about 0.92. Some of the results follow.
// one of active, inactive, no free text

// below: answered compounds
INSERT INTO measurements (compound, classname) VALUES
  ('CC(=O)Oc1ccccc1C(=O)O', 'inactive'),
  ('CC(=O)[O][Hg][c]1ccccc1', 'active'),
  ('COc1cccc(OC)c1C(=O)N[C@@H]1C(=O)N2[C@@H]1SC(C)(C)[C@@H]2C(=O)O', 'inactive'),
  ('COc1ccc(C2C(=O)c3ccccc3C2=O)cc1', 'inactive');

Just curious, what result did NC1C[C@H]1c1ccccc1 (stereo not given in full) get here?
inactive

====

experimentalDetails: chemical genetic growth profiling, strain panel (AID 1159580);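 note: tested at 20 µM; growth read once vehicle control cultures reached saturation at 30 °C; 1 = growth at the plate median or of vehicle wells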
testSettings: S. cerevisiae deletion strains, growth OD, locus YAL013W, strain DEP1, stronger effect = lower value
Screen size: about 5,500 compounds; about 2,000 (36%) were called active. Not shown: some 18% with an inconclusive outcome. The list shows a part of the results.
Cut-off 1 on normalized growth: below means TRUE, at or above means FALSE.

// below: answered compounds
INSERT INTO assay_data (compound, classname) VALUES
  ('O=C(OC[C@H]1O[C@H](OC(=O)c2cc(O)c(O)c(OC(=O)c3cc(O)c(O)c(O)c3)c2)[C@H](OC(=O)c2cc(O)c(O)c(OC(=O)c3cc(O)c(O)c(O)c3)c2)[C@@H](OC(=O)c2cc(O)c(O)c(OC(=O)c3cc(O)c(O)c(O)c3)c2)[C@@H]1OC(=O)c1cc(O)c(O)c(OC(=O)c2cc(O)c(O)c(O)c2)c1)c1cc(O)c(O)c(OC(=O)c2cc(O)c(O)c(O)c2)c1', 'TRUE'),
  ('O=c1c(O)c(-c2ccc(O)c(O)c2)oc2cc(O)ccc12', 'TRUE'),
  ('O=C(O)[C@H](O)[C@@](O)(Cc1ccc(O)cc1)C(=O)O', 'FALSE'),
  ('CC(=O)NO', 'TRUE'),
  ('COc1cc(/C=C/C=O)cc(OC)c1OC', 'FALSE');

We next turn to a different compound, shown below.
Regarding CCCCCCCCCCCCCCCCOCC(COCC(F)(F)F)OP(=O)(O)OCO (centres undefined) , kindly confirm whether its normalized growth is beneath 1.
TRUE

====

In this section, each of the molecules is paired with its reported normalized growth.
experimentalDetails: chemical genetic growth profiling, strain panel (AID 1159580);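 note: tested at 20 µM; growth read once vehicle control cultures reached saturation at 30 °C; 1 = growth at the plate median or of vehicle wells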
testSettings: S. cerevisiae deletion strains, growth OD, locus YML032C, strain rad52, stronger effect = lower value
About 2,000 (36%) of roughly 5,500 compounds were called active. Another 18% or so got no clear call; they are omitted. The list shows a part of the results.
Give only the figure.

Sample records with normalized growth:
INSERT INTO assay_data (molecule, quantity, reportedvalue) VALUES
  ('CCCCCCCCCCCCCCCCCCOCC(O)CO (stereo not drawn)', 'normalized growth', 0.983),
  ('COC1(C)CCC2OC2(C)CCC2C1CC2(C)C (stereo not drawn)', 'normalized growth', 1),
  ('NC[C@H]1O[C@H](O[C@H]2[C@H](O)[C@@H](O[C@H]3O[C@H](CO)[C@@H](O)[C@H](N)[C@H]3O)[C@H](N)C[C@@H]2N)[C@H](N)C[C@@H]1O', 'normalized growth', 1.02),
  ('CC[C@@H](CO)NC(=O)[C@@H]1C=C2c3cccc4[nH]cc(c34)C[C@H]2N(C)C1', 'normalized growth', 0.971);

Next item in the queue.
// query normalized growth value for entry O=C(CCc1ccc(O)cc1)c1c(O)cc(O)cc1O[C@@H]1O[C@H](CO)[C@@H](O)[C@H](O)[C@H]1O
0.986
